Reference source for all entries: ChEMBL document CHEMBL5518206

protocol.summary: Cmax in NMRI female mouse at 30 mg/kg, po by HPLC analysis
Assay type: ADME, organism-based
assay.conditions: in vivo
assay.metric: Cmax (ng/mL)
Write the number in ng/mL without appending the unit.

### Prompt Data request, read-out Cmax, for `C=C[C@]1(C)C[C@@H](OC(=O)Cn2cc(-c3ccc(Cn4cnc5c(N6CCNCC6)ncnc54)nc3)nn2)[C@]2(C)[C@H](C)CC[C@]3(CCC(=O)[C@H]32)[C@@H](C)[C@@H]1O`
### Response 8.2

====

Here the recorded MIC is given for each entry.
System: Staphylococcus aureus
protocol.summary: Antibacterial activity against multi drug-resistant Staphylococcus aureus USA300 FPR3757 assessed as inhibition of visible growth incubated for 20 to 24 hrs by microbroth serial dilution assay
Type: functional
assay.conditions: time 20-24 hrs, read-out: MIC100
Write the number in µg/mL without appending the unit.

[
  {
    "smi": "C=C[C@]1(C)C[C@@H](OC(=O)Cn2cc(-c3ccc([C@H](C)n4cnc5c(N)ncnc54)cc3)nn2)[C@]2(C)[C@H](C)CC[C@]3(CCC(=O)[C@H]32)[C@@H](C)[C@@H]1O",
    "MIC / µg/mL": 0.12
  },
  {
    "smi": "C=C[C@]1(C)C[C@@H](OC(=O)Cn2cc(-c3ccc([C@@H](C)n4cnc5c(N)ncnc54)cc3)nn2)[C@]2(C)[C@H](C)CC[C@]3(CCC(=O)[C@H]32)[C@@H](C)[C@@H]1O",
    "MIC / µg/mL": 0.12
  },
  {
    "smi": "C=C[C@]1(C)C[C@@H](OC(=O)Cn2cc(-c3ccc(Cn4cnc5c(N)ncnc54)nc3)nn2)[C@]2(C)[C@H](C)CC[C@]3(CCC(=O)[C@H]32)[C@@H](C)[C@@H]1O",
    "MIC / µg/mL": 0.03
  }
]

### Prompt Data request, read-out MIC, for `C=C[C@]1(C)C[C@@H](OC(=O)Cn2cc(-c3ccc([C@H](C)n4cnc5c(N6CCNCC6)ncnc54)cc3)nn2)[C@]2(C)[C@H](C)CC[C@]3(CCC(=O)[C@H]32)[C@@H](C)[C@@H]1O`
### Response 0.5

### Prompt Data request, read-out MIC, for `C=C[C@]1(C)C[C@@H](OC(=O)Cn2cc(-c3ccc(Cn4cnc5c(N)ncnc54)c(O)c3)nn2)[C@]2(C)[C@H](C)CC[C@]3(CCC(=O)[C@H]32)[C@@H](C)[C@@H]1O`
### Response 0.03

### Prompt Data request, read-out MIC, for `C=C[C@]1(C)C[C@@H](OC(=O)Cn2cc(-c3ccc(Cn4cnc5c(N)nc(N)nc54)cc3)nn2)[C@]2(C)[C@H](C)CC[C@]3(CCC(=O)[C@H]32)[C@@H](C)[C@@H]1O`
### Response 0.06

====

protocol.summary: Clearance in NMRI female mouse at 20 mg/kg, sc by HPLC analysis
Type: ADME, organism-based
assay.conditions: in vivo
assay.metric: CL/F

### Prompt Data request, read-out CL/F, for `C=C[C@]1(C)C[C@@H](OC(=O)Cn2cc(-c3ccc(Cn4cnc5c(N6CCNCC6)ncnc54)nc3)nn2)[C@]2(C)[C@H](C)CC[C@]3(CCC(=O)[C@H]32)[C@@H](C)[C@@H]1O`
### Response 90.3 mL/min/kg
